Tested on: P388 leukemia ip, CD2F1 mice, survival T/C
ASSAY_TEXT: NCI In Vivo Anticancer Drug Screen. Data for tumor model P388 Leukemia (intraperitoneal) in CD2F1 (CDF1) mice
TEST_PARAMETERS: endpoint: median survival time; dose: 60.0 mg/kg/injection; schedule: Q01DX005 (ip); vehicle: Klucel (hydroxypropylcellulose) (HPC); higher = longer survival
Inconclusive results and toxic doses are left out.
VALUE_TYPE: T/C

CC(C)CC1COC(=O)C(CC(C)C)NC(=O)COCC(=O)NC(CC(C)C)C(=O)OCC(CC(C)C)NC(=O)COCC(=O)N1 (configuration not stated); 99 % of control
O=C(COc1ccc([N+](=O)[O-])cc1)NN1C(=O)c2ccc([N+](=O)[O-])cc2C1=O; 92 % of control
COc1cc(/C=C2/C(=O)N(c3ccccc3)N=C2C)cc(OC)c1OC; 108 % of control
O=C(O)c1cnc2cc3c(cc2c1Nc1cccc(Cl)c1)OCO3; 93 % of control
Cc1nc(N)[nH]c(=O)c1CCCN=Cc1ccccc1; 108 % of control

# lookup: T/C of O=C1Nc2ccccc2C(=O)C1(Cc1ccccc1)C(=O)c1ccccc1 (configuration not stated)
99 % of control

Endpoint output: T/C of COc1ccc(C(=O)c2[nH]ncc2Nc2ccccc2)cc1 . Value?
97 % of control

So what does the record say about T/C for CCn1c(C)nc2c(N)cc(C(F)(F)F)cc21 (tested in a mixture with another compound) ?
100 % of control

Field request: T/C | item: Cc1cc(Br)c(NC(=O)c2c(-c3c(Cl)cccc3Cl)noc2C)c(Br)c1
88 % of control

Looking for the measured T/C of COC(=O)c1nc(=S)[nH]c(C(=O)OC)c1C(=O)c1ccc(Cl)c(Cl)c1 , can you help?
89 % of control

I have this compound here, CC1=NN(c2ccccc2)C(=O)C1C1c2ccccc2S(=O)(=O)c2ccccc21 (configuration not stated) , and I need its recorded T/C.
97 % of control

Could you share which T/C value was measured for CN(C)c1nc(Cl)c2cc(Cl)ccc2n1 ?
100 % of control

Look at this compound and give its reported T/C. COc1nc(Cl)cn(C)c1=O
95 % of control

Which T/C reading was recorded for the compound CS(=O)(=O)c1ccc(C[N+]23CN4CN(CN(C4)C2)C3)cc1 ?
98 % of control

Fill blank: measured T/C of the compound Fc1cccc(Cl)c1C(Nc1nc2ccccc2s1)Nc1nc2ccccc2s1 is ____.
98 % of control

Item CC(C)(C)c1noc2c1C(=O)c1ccccc1-2 has what recorded T/C?
99 % of control
